# Subject Of Test: full length SGK1 (Homo sapiens, UniProt O00141)
# Construct: 125 μM full length SGK1 (Life Technologies Part #PR7358A); purchased Life Technologies PR7358A
# Protocol Text: SGK1 inhibition Assay A (Caliper LabChip electrophoretic separation of fluorescent peptide substrate and phosphorylated product)
# Type: biochemical
# Condition: Assay A; 20 μM ATP, 40 min incubation; read-out: SGK1 IC50
Observation Type: pIC50
Answer as the number alone; pIC50 is minus log10 of concentration in mol/L.

Examples from the recorded data:
>>> measured_result("CC1CC(Oc2cc(Cl)sc2C(=O)NC2CCCN(c3cc(-c4cncnc4)n4ncnc(N)c34)C2)CCN1 (single isomer, unassigned) [Example 626]")
8.10
>>> measured_result("CC(=O)N1CC=C(c2cc(N3CCC[C@@H](NC(=O)c4cccc(N5CCN(C)CC5)n4)C3)c3c(N)ncnn23)C1")
7.96

Write down pIC50 measured for item Cc1cc(C(=O)N[C@@H]2CCCN(c3cc(-c4ccc(S(C)(=O)=O)cc4)n4ncnc(N)c34)C2)sc1C 8.22

###

# Subject Of Test: SGK1 (Homo sapiens, UniProt O00141)
# Sequence (O00141 1-431): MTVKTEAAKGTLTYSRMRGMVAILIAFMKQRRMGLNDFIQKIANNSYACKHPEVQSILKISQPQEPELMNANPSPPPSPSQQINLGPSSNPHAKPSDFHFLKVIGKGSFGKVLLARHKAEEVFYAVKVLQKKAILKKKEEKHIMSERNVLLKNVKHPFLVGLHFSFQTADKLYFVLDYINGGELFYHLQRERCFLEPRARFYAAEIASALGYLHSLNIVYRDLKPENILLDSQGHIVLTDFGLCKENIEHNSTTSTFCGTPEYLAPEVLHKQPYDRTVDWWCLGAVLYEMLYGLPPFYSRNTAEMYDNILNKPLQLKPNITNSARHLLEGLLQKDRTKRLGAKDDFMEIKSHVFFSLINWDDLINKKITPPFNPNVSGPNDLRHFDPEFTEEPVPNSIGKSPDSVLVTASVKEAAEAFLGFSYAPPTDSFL
Observation Type: IC50 (nM)
The response must be a number in nM with no trailing unit.

>>> measured_result("CC(C)N1CC2(CN(c3cccc(C(=O)N[C@@H]4CCCN(c5cc(-c6cc(F)c(-n7cnnn7)cc6F)n6ncnc(N)c56)C4)n3)C2)C1")
7
>>> measured_result("CC(C)N1[C@@H]2CCC[C@H]1C[C@H](Oc1cc(Cl)sc1C(=O)N[C@@H]1CCCN(c3cc(-c4cc(F)c(=O)n(CC(F)F)c4)n4ncnc(N)c34)C1)C2")
2
>>> measured_result("COC1=C(C(=O)N[C@@H]2CCCN(c3cc(C4=CCN(C(C)=O)C4)n4ncnc(N)c34)C2)CN(C)C1=O")
163

Write down IC50 measured for item Cc1nc(OC2CC3CC2CN3C(C)C)c(C(=O)N[C@@H]2CCCN(c3cc(-c4ccc(-n5cnnn5)c(F)c4)n4ncnc(N)c34)C2)s1 (single isomer, unassigned) 0.8

Write down IC50 measured for item Cc1nc(O[C@@H]2C[C@H]3CC[C@@H](C2)N3C)c(C(=O)N[C@@H]2CCCN(c3cc(-c4ccc5c(c4)CNC5=O)n4ncnc(N)c34)C2)s1 5

###

# Subject Of Test: UniProt:O00141
Where a name gives a salt, the structure may show the parent alone.
Observation Type: IC50
Answer format: number, then unit.

>>> measured_result("Cc1nc(O[C@H]2CC[C@@H](NC3CCOC3)CC2)c(C(=O)N[C@@H]2CCCN(c3cc(-c4ccc(=O)n(CC(F)F)n4)n4ncnc(N)c34)C2)s1 (some centres unmarked) [Example 980]")
"1 nM"
>>> measured_result("CC1=C(c2cc(N3CCC[C@@H](NC(=O)c4sc(C)nc4OC4CCC(N(C)C)CC4)C3)c3c(N)ncnn23)COC1=O (some centres unmarked) [Example 1017]")
"1.6 nM"
>>> measured_result("CCC1=C(c2cc(N3CCC[C@@H](NC(=O)c4sc(C)nc4O[C@H]4CC[C@@H](NC(C)CO)CC4)C3)c3c(N)ncnn23)COC1=O (single isomer, unassigned) [Example 1020]")
"1.1 nM"
>>> measured_result("CN(C)CC(=O)N1CC2CCC1CC2Oc1cc(Cl)sc1C(=O)N[C@@H]1CCCN(c2cc(-c3ccc(-n4cnnn4)nc3)n3ncnc(N)c23)C1 (some centres unmarked) [Example 990]")
"1 nM"
>>> measured_result("COc1nccc(-c2cc(N3CCC[C@@H](NC(=O)c4sc(C)nc4O[C@H]4CC[C@@H](N(C)C)CC4)C3)c3c(N)ncnn23)n1 [Example 1028]")
"1.7 nM"
>>> measured_result("CC(=O)N1CC=C(c2cc(N3CCC[C@@H](NC(=O)c4sc(Cl)cc4OC4CC5COCC(C4)N5)C3)c3c(N)ncnn23)C1 (some centres unmarked) [Example 986E]")
"0.9 nM"
>>> measured_result("Cc1nc(O[C@H]2CC[C@@H](N(C)C)CC2)c(C(=O)N[C@@H]2CCCN(c3cc(-c4ccc(C(N)=O)c(F)c4)n4ncnc(N)c34)C2)s1 [Example 937]")
"1 nM"
>>> measured_result("Nc1ncnn2c(-c3ccc(-n4cnnn4)c(F)c3)cc(N3CCC[C@@H](NC(=O)c4sc(Cl)cc4OC4CC5CC4CN5C4COC4)C3)c12 (some centres unmarked) [Example 994]")
"0.6 nM"

Write down IC50 measured for item Cc1nc(OC2CCC(NC3CC3)CC2)c(C(=O)N[C@@H]2CCCN(c3cc(-c4ccc(C(N)=O)c(F)c4)n4ncnc(N)c34)C2)s1 (single isomer, unassigned) [Example 941] 1 nM

Write down IC50 measured for item Cc1nc(O[C@H]2CC[C@@H](NC(C)C)CC2)c(C(=O)N[C@@H]2CCCN(c3cc(C4=CC(=O)OC4)n4ncnc(N)c34)C2)s1 [Example 977] 1 nM

Write down IC50 measured for item CCC(C)(C)NC1CCC(Oc2nc(C)sc2C(=O)N[C@@H]2CCCN(c3cc(-c4ccc(C(N)=O)c(F)n4)n4ncnc(N)c34)C2)CC1 (some centres unmarked) [Example 1055] 0.5 nM

Write down IC50 measured for item [2H]C([2H])([2H])Oc1nccc(-c2cc(N3CCC[C@@H](NC(=O)c4sc(C)nc4O[C@H]4CC[C@@H](N(C)C)CC4)C3)c3c(N)ncnn23)n1 [Example 1033] 1 nM

Write down IC50 measured for item Cc1cc(-c2cc(N3CCC[C@@H](NC(=O)c4sc(C)nc4O[C@H]4CC[C@@H](N(C)C)CC4)C3)c3c(N)ncnn23)cnn1 [Example 1046] 16 nM

Write down IC50 measured for item Cc1cc(O[C@@H]2C[C@H]3CC[C@@H](C2)N3C)c(C(=O)N[C@@H]2CCCN(c3cc(-c4cnc(-n5cnnn5)c(F)c4)n4ncnc(N)c34)C2)s1 [Example 845, TFA salt] 3 nM

###

# Subject Of Test: full length SGK1 (Homo sapiens)
# Construct: 125 μM full length SGK1 (Life Technologies Part #PR7358A); purchased Life Technologies PR7358A
# Protocol Text: SGK1 inhibition Assay A (Caliper LabChip electrophoretic separation of fluorescent peptide substrate and phosphorylated product)
# Assay type: biochemical
# Condition: Assay A; 20 μM ATP, 40 min incubation; read-out: SGK1 IC50
Rule: IC50 below 10 nM gives label 1, anything at or above gives label 0.

Before answering, review these 4 worked examples.
>>> assigned_label("COC(=O)N1CC=C(c2cc(N3CCC[C@@H](NC(=O)c4sc(Cl)cc4OCCN4CC(OC)C4)C3)c3c(N)ncnn23)C1")
"label 0"
>>> assigned_label("CC(=O)N1CC=C(c2cc(N3CCC[C@@H](NC(=O)c4cc(C5CC5)[nH]n4)C3)c3c(N)ncnn23)C1")
"label 0"
>>> assigned_label("Cc1ccc(C(=O)N(C)[C@@H]2CCCN(c3cc(-c4ccc(S(C)(=O)=O)cc4)n4ncnc(N)c34)C2)s1")
"label 0"
>>> assigned_label("CC(=O)N1CC=C(c2cc(N3CCC[C@@H](NC(=O)c4sc(Cl)cc4OCCN4CCC(C)(N)CC4)C3)c3c(N)ncnn23)C1")
"label 1"

From here, focus on the item given below.
# strict comparison: is reported IC50 < 10 nM? input = Nc1ncnn2c(-c3cncnc3)cc(N3CCC[C@@H](NC(=O)c4cc5ccccc5s4)C3)c12 label 1

###

# pIC50 per entry
# Subject Of Test: full length SGK1 (Homo sapiens, UniProt O00141)
# Construct: 125 μM full length SGK1 (Life Technologies Part #PR7358A); purchased Life Technologies PR7358A
# Protocol Text: SGK1 inhibition Assay A (Caliper LabChip electrophoretic separation of fluorescent peptide substrate and phosphorylated product)
# Type: biochemical
# Condition: Assay A; 20 μM ATP, 40 min incubation; read-out: SGK1 IC50
Where a name gives a salt, the structure may show the parent alone.
Answer as the number alone; pIC50 is minus log10 of concentration in mol/L.

Examples from the recorded data:
>>> measured_result("Nc1ncnn2c(-c3ccc4ncnn4c3)cc(N3CCC[C@@H](NC(=O)c4ccc(Cl)s4)C3)c12")
7.92
>>> measured_result("CC(=O)Nc1ccc(C(=O)N[C@@H]2CCCN(c3cc(C4=CCN(C(C)=O)C4)n4ncnc(N)c34)C2)cc1")
7.30
>>> measured_result("CS(=O)(=O)c1ccc(-c2cc(N3CCC[C@@H](NC(=O)c4cn5ccncc5n4)C3)c3c(N)ncnn23)cc1 [Example 42, TFA]")
6.73
>>> measured_result("CN(C)CCOc1cc(Cl)sc1C(=O)N[C@@H]1CCCN(c2cc(-c3ccc(C#N)c(F)c3)n3ncnc(N)c23)C1")
8.52
>>> measured_result("COC(=O)N1CC=C(c2cc(N3CCC[C@@H](NC(=O)c4sc(Cl)cc4OC4COC4)C3)c3c(N)ncnn23)C1")
8.40

Write down pIC50 measured for item COC(=O)N1CC=C(c2cc(N3CCC[C@@H](NC(=O)c4sc(C(F)F)cc4OC4CCN(C(C)C)CC4)C3)c3c(N)ncnn23)C1 8.00

Write down pIC50 measured for item Cc1cc(C(=O)N[C@@H]2CCCN(c3cc(-c4ccc(S(C)(=O)=O)cc4)n4ncnc(N)c34)C2)ccn1 8.05

Write down pIC50 measured for item Cc1ccc(C(=O)N[C@@H]2CCCN(c3cc(-c4ccc(S(C)(=O)=O)cc4)n4ncnc(N)c34)C2)cc1C [Example 84, TFA] 7.72

Source of measurements: patent US20260250290A1
